Each entry below carries its reported IC50.
Test system: Aβ42 production in primary nerve cells
test-name: Measurement of amyloid β production inhibition rate using primary nerve cell (Aβ42 sandwich ELISA)
Type: cell-based
recorded-conditions: Rattus norvegicus, 72 h, primary nerve cells from cerebral cortex of SD rat fetus; cultured 3 days with compound; culture supernatant, sandwich ELISA for Aβ42; read-out: Aβ42 production inhibitory activity IC50
Please reply with the bare figure in nM and do not write the unit itself.

The cases that follow already have their IC50 on record.
| molecule | IC50 [nM] |
| --- | --- |
| COc1cc(-c2nnc3n2CCCC3(Oc2cc(F)c(F)c(F)c2)C(C)(C)O)ccc1-n1cnc(Cl)c1 (stereo not shown) | 143 |
| COc1cc(-c2nnc3n2CCCC3(Oc2cc(F)c(F)c(F)c2)C(C)(C)O)ccc1-c1cnc(C)o1 (stereo not shown) | 20 |
| COc1nc(-c2nnc3n2CCCC3(Oc2cc(F)c(F)c(F)c2)C(C)(C)O)ccc1-c1cnc(C)o1 (stereo not shown) | 47 |

Next:
QUERY: Name the recorded IC50 of the item COc1cc(-c2nnc3n2CCCC3(c2ccc(F)c(F)c2)C(C)(C)O)ccc1-c1cnc(C)o1 (stereo not shown) in your answer.
RESULT: 143

====

System: Aβ42 production in primary nerve cells
test-name: Measurement of amyloid β production inhibition rate using primary nerve cell (Aβ42 sandwich ELISA)
Assay type: cell-based
recorded-conditions: Rattus norvegicus, 72 h, primary nerve cells from cerebral cortex of SD rat fetus; cultured 3 days with compound; culture supernatant, sandwich ELISA for Aβ42; read-out: Aβ42 production inhibitory activity IC50
Known pIC50 of a selection of compounds
Conceptually, pIC50 converts a concentration in mol/L into minus its log10.

QUERY: Dear colleague, please send me the reported pIC50 for COc1cc(-c2nnc3n2CCCC3(Oc2ccc(Cl)c(F)c2)C(C)(C)O)ccc1-c1cnc(C)o1 (centres unmarked) when you can.
RESULT: 8.00

QUERY: Fill in pIC50 for record Cc1ncc(-c2ccc(-c3nnc4n3CCCC4(Oc3cc(F)c(F)c(F)c3)C(C)(C)O)cc2F)o1 (centres unmarked)
RESULT: 6.44

QUERY: Using the record for Cc1ncc(-c2ccc(-c3nnc4n3CCCC4(Oc3ccc(F)c(F)c3)C(C)(C)O)cc2OCC(F)F)o1 (centres unmarked) , state its measured pIC50.
RESULT: 6.99

QUERY: Supply measured pIC50 of CCC(O)(CC)C1(Oc2ccc(Cl)c(F)c2)CCCn2c(-c3ccc(-c4cnc(C)o4)c(OC)c3)nnc21 (centres unmarked) in your reply.
RESULT: 8.40

QUERY: Please look at this compound and report its pIC50: Cc1ncc(-c2ccc(-c3nnc4n3CCCC4(Oc3ccc(F)c(F)c3)C(C)(C)O)cc2O)o1 (centres unmarked)
RESULT: 7.40

====

Recorded IC50, one value per entry.
Tested on: Aβ42 production in primary nerve cells
test-name: Measurement of amyloid β production inhibition rate using primary nerve cell (Aβ42 sandwich ELISA)
Assay type: cell-based
recorded-conditions: Rattus norvegicus, 72 h, primary nerve cells from cerebral cortex of SD rat fetus; cultured 3 days with compound; culture supernatant, sandwich ELISA for Aβ42; read-out: Aβ42 production inhibitory activity IC50
State just the number; it will be interpreted in nM.

Worked cases, answers included:
| compound | target-desc | measurement-unit | IC50 |
| --- | --- | --- | --- |
| COc1cc(-c2nnn3c2CCCC3(C)c2ccc(Cl)c(Cl)c2)ccc1-n1cnc(C)n1 (stereo not drawn) [Example 91] | Aβ42 production in primary nerve cells | nM | 148 |
| COc1nc(-c2nnc3n2CCCC3(Oc2ccc(Cl)c(F)c2)C(C)(C)O)ccc1-n1cnc(C)c1 (stereo not drawn) [Example 1] | Aβ42 production in primary nerve cells | nM | 27 |

QUERY: Give the reported value of IC50 for this record: COc1cc(-c2nnc3n2CCCC3(CC2CC2)c2ccc(Cl)c(C(F)(F)F)c2)ccc1-n1cnc(C)c1 (stereo not drawn) [Example 78]
RESULT: 55
